All values here come from paper PMC8217266.

Biological target: human OATP2B1 (Homo sapiens)
Sequence (O94956 whole entry): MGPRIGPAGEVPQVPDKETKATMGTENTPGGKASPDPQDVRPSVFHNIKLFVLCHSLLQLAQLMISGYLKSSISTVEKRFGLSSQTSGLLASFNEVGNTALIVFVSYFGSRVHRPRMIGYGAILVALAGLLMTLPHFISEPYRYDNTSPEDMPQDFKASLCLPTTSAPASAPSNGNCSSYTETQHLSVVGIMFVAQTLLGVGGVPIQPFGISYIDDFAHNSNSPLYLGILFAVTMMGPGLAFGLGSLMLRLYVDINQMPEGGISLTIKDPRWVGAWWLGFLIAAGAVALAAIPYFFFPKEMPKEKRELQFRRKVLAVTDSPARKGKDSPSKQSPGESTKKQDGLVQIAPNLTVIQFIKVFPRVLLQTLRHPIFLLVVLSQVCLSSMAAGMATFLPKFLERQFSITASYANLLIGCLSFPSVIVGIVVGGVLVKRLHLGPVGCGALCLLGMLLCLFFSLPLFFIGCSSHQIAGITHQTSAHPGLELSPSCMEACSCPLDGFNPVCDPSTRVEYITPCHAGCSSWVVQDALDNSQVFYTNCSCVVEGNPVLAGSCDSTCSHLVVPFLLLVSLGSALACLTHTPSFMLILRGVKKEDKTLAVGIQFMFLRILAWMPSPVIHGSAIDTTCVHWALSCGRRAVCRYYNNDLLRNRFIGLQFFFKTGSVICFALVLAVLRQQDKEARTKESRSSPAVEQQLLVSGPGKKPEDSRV
Reported values of IC50 for individual entries
Dear colleague, please return just the value in µM, with no unit written.

chemical string | assayed target | unit abbrev | IC50
CCCCc1nc(Cl)c(CO)n1Cc1ccc(-c2ccccc2-c2nn[nH]n2)cc1 | human OATP2B1 (Homo sapiens) | µM | 2.5

Test item N#CC[C@H](C1CCCC1)n1cc(-c2ncnc3[nH]ccc23)cn1 ; human OATP2B1 (Homo sapiens); reported IC50 was 17.4

Test item CCOC(=O)c1c(CSc2ccccc2)n(C)c2cc(Br)c(O)c(CN(C)C)c12 ; human OATP2B1 (Homo sapiens); reported IC50 was 3.5

###

Molecular target: BCRP (Homo sapiens)
Test: biochemical
pIC50: −log10 of the molar value.
Reported values of pIC50 for individual entries

chemical string | pIC50
COc1ccc2cc1Oc1ccc(cc1)C[C@H]1c3cc(c(OC)cc3CCN1C)Oc1c(OC)c(OC)cc3c1[C@H](C2)N(C)CC3 | < 5.00
CC(C)CN(C[C@@H](O)[C@H](Cc1ccccc1)NC(=O)O[C@H]1CO[C@H]2OCC[C@H]21)S(=O)(=O)c1ccc(N)cc1 | < 4.00

The reported value for CC[C@H]1OC(=O)[C@H](C)[C@@H](O[C@H]2C[C@@](C)(OC)[C@@H](O)[C@H](C)O2)[C@H](C)[C@@H](O[C@@H]2O[C@H](C)C[C@H](N(C)C)[C@H]2O)[C@](C)(O)C[C@@H](C)CN(C)[C@H](C)[C@@H](O)[C@]1(C)O in terms of pIC50 is < 4.30

###

Reported values of pIC50 for individual entries
Biological target: BCRP (Homo sapiens)
Sequence (Q9UNQ0 1-655): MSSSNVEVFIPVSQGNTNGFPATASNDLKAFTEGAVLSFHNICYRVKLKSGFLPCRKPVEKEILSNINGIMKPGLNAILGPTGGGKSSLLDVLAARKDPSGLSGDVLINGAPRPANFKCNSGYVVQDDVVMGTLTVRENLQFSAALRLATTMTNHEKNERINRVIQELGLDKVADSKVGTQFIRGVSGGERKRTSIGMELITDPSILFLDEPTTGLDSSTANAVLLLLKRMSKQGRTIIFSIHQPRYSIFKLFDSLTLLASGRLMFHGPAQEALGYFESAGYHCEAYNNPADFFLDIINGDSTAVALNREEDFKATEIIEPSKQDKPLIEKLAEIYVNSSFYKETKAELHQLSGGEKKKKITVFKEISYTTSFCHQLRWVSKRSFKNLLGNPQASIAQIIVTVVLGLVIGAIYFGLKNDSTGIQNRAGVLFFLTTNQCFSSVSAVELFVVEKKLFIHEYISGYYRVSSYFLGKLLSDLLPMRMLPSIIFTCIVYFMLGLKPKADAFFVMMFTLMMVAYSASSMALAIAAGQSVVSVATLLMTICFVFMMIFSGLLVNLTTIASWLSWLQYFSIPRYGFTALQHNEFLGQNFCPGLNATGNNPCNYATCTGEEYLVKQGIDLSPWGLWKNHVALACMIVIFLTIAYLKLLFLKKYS
Assay: biochemical
pIC50: −log10 of the molar value.

compound | pIC50
N#CC[C@H](C1CCCC1)n1cc(-c2ncnc3[nH]ccc23)cn1 | < 4.00
CCCCCCCCc1ccc(CCC(N)(CO)CO)cc1 | < 4.00
CCCc1nn(C)c2c(=O)[nH]c(-c3cc(S(=O)(=O)N4CCN(C)CC4)ccc3OCC)nc12 | 5.51
CCOC(=O)C1=C[C@@H](OC(CC)CC)[C@H](NC(C)=O)[C@@H](N)C1 | < 4.00

Alright, here's another compound for you.
The reported value for CCN(CCO)CCCC(C)Nc1ccnc2cc(Cl)ccc12 (centres unmarked) [Hydroxychloroquine] in terms of pIC50 is < 4.00
